# assay-summary: General properties of LACE (solubility, solution pH, Log P, hygroscopicity)
# Format: physicochemical
# condition-info: in water; read-out: Solubility Profile
test-readout: solubility

>>> observed_result("C[N+](C)(C)CCOC(=O)CCCC[C@@H]1CCSS1 [LACE Chloride, Lipoic Acid Choline Ester Chloride]")
"> 50 mg/mL"
